Cited source for all entries: ChEMBL document CHEMBL1914389

Biological target: UniProt P04150
Sequence (P04150 whole entry): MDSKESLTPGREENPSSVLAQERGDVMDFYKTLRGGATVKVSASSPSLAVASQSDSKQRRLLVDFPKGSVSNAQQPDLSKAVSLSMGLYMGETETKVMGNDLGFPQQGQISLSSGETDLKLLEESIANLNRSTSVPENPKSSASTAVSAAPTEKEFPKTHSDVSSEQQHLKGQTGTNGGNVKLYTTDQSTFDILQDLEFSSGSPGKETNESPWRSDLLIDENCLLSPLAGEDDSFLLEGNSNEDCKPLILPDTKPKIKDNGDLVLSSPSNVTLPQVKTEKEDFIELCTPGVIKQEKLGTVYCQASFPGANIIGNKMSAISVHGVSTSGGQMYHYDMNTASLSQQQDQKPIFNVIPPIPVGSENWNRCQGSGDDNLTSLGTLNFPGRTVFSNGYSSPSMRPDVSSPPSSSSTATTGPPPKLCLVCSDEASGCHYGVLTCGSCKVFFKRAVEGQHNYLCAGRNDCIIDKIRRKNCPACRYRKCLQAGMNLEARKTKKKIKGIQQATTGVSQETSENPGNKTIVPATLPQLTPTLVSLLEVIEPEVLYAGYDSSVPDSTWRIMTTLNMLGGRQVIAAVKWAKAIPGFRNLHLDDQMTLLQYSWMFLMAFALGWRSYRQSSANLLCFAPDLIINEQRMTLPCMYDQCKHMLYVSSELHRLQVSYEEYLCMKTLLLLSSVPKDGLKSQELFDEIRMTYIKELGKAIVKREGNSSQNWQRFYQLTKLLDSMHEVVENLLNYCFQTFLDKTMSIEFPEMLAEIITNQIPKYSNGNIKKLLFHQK
Test: Transactivation activity at glucocorticoid receptor in human HepG2 cells expressing luciferase-taggged GRE gene by luciferase reporter gene assay
Assay type: cell-based
Threshold-based label: EC50 under 20 nM gives met, EC50 not under 20 nM gives not met.

>  <compound-structure-string>
C[C@@H]1C[C@H]2[C@@H]3CCC4=CC(=O)C=C[C@]4(C)[C@@]3(F)[C@@H](O)C[C@]2(C)[C@@]1(O)C(=O)CSc1nc2ccccc2s1

>  <answer-label>
not met

$$$$
>  <compound-structure-string>
C[C@@H]1C[C@H]2[C@@H]3CCC4=CC(=O)C=C[C@]4(C)[C@@]3(Cl)[C@@H](O)C[C@]2(C)[C@@]1(O)C(=O)CSc1nc2ccccc2s1

>  <answer-label>
not met

$$$$
>  <compound-structure-string>
C[C@H]1C[C@@H]2[C@H]([C@@H](O)C[C@@]3(C)[C@H]2CC[C@]3(O)C(=O)CSc2nc3ccccc3s2)[C@@]2(C)C=CC(=O)C=C12

>  <answer-label>
not met

$$$$
>  <compound-structure-string>
C[C@@H]1C[C@H]2[C@@H]3C[C@H](F)C4=CC(=O)C=C[C@]4(C)[C@@]3(F)[C@@H](O)C[C@]2(C)[C@@]1(O)C(=O)CSc1nc2ccccc2s1

>  <answer-label>
met

$$$$
>  <compound-structure-string>
C[C@]12CCC(=O)C=C1CC[C@H]1[C@@H]3CC[C@](O)(C(=O)CSc4nc5ccccc5s4)[C@@]3(C)C[C@H](O)[C@@]12F

>  <answer-label>
not met

$$$$
>  <compound-structure-string>
C[C@]12C=CC(=O)C=C1CC[C@@H]1[C@@H]2[C@@H](O)C[C@@]2(C)[C@H]1CC[C@]2(OC(=O)c1ccco1)C(=O)CSc1nccc2ccccc12

>  <answer-label>
met

$$$$
>  <compound-structure-string>
C[C@]12C=CC(=O)C=C1CC[C@@H]1[C@@H]2[C@@H](O)C[C@@]2(C)[C@H]1CC[C@]2(OC(=O)c1ccco1)C(=O)CSc1nc2ccccc2s1

>  <answer-label>
met

$$$$
>  <compound-structure-string>
Cc1ccnc(SCC(=O)[C@@]2(OC(=O)c3ccco3)CC[C@H]3[C@@H]4CCC5=CC(=O)C=C[C@]5(C)[C@H]4[C@@H](O)C[C@@]32C)n1

>  <answer-label>
met

$$$$
